B1: Ankyrin-3, residues 4094 to 4171; numbered along this chain, Q12955 (parent)
chain: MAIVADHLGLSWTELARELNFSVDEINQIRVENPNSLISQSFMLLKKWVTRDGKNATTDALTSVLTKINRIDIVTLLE

- Variants of: B1
- protocol text: abundance fitness (aPCA) (normalised: wild type 0, dead -1); higher = more abundant; growth selection in yeast, the domain comes from the species named
- experimental setup: Homo sapiens
Kind request: treat -0.07 as inclusive, so abundance fitness at -0.07 or higher is met, anything lower is not met.

(Q) hey, is abundance fitness for this one >= -0.07? S39E
(A) not met

(Q) Then what about the variant L61G ?
(A) not met

(Q) Then what about the variant P34A ?
(A) not met

(Q) Then what about the variant A56L ?
(A) not met

(Q) Then what about the variant I68L ?
(A) not met

(Q) Then what about the variant V4K ?
(A) not met

(Q) Then what about the variant S39A ?
(A) met

(Q) Then what about the variant E18S ?
(A) not met

(Q) Then what about the variant I38A ?
(A) met

(Q) Then what about the variant I3P ?
(A) not met

(Q) Then what about the variant F21N ?
(A) not met

(Q) Then what about the variant T58R ?
(A) met

(Q) Then what about the variant W48L ?
(A) not met

(Q) Then what about the variant D59W ?
(A) not met

(Q) Then what about the variant E25Y ?
(A) not met

(Q) Then what about the variant T66E ?
(A) not met

(Q) Then what about the variant Q40R ?
(A) not met

(Q) Then what about the variant D59S ?
(A) not met

(Q) Then what about the variant E32W ?
(A) not met

(Q) Then what about the variant K46H ?
(A) not met

(Q) Then what about the variant K46N ?
(A) met

(Q) Then what about the variant D59A ?
(A) met

(Q) Then what about the variant S36K ?
(A) not met

(Q) Then what about the variant S63G ?
(A) met

(Q) Then what about the variant T62L ?
(A) met

(Q) Then what about the variant F21S ?
(A) not met

(Q) Then what about the variant G53C ?
(A) not met

(Q) Then what about the variant A16P ?
(A) not met

(Q) Then what about the variant I71D ?
(A) met

(Q) Then what about the variant Q28M ?
(A) not met

(Q) Then what about the variant T57R ?
(A) not met

(Q) Then what about the variant L10V ?
(A) met

(Q) Then what about the variant G9N ?
(A) met

(Q) Then what about the variant S36E ?
(A) not met

(Q) Then what about the variant V4Q ?
(A) not met

(Q) Then what about the variant D59Y ?
(A) not met

(Q) Then what about the variant I3V ?
(A) met

(Q) Then what about the variant V49S ?
(A) met

(Q) Then what about the variant T62Y ?
(A) not met

(Q) Then what about the variant K54S ?
(A) met

(Q) Then what about the variant R17M ?
(A) met

(Q) Then what about the variant L45C ?
(A) not met

(Q) Then what about the variant E78V ?
(A) not met

(Q) Then what about the variant D72E ?
(A) not met

(Q) Then what about the variant S39G ?
(A) met

(Q) Then what about the variant A2W ?
(A) met

(Q) Then what about the variant L76M ?
(A) met

(Q) Then what about the variant V64T ?
(A) not met

(Q) Then what about the variant V49F ?
(A) not met

(Q) Then what about the variant A60P ?
(A) not met

(Q) Then what about the variant S36G ?
(A) not met

(Q) Then what about the variant N20L ?
(A) not met

(Q) Then what about the variant R70D ?
(A) not met

(Q) Then what about the variant R30M ?
(A) met

(Q) Then what about the variant I29L ?
(A) not met

(Q) Then what about the variant D52F ?
(A) not met

(Q) Then what about the variant S11F ?
(A) not met

(Q) Then what about the variant T75S ?
(A) met

(Q) Then what about the variant P34L ?
(A) not met

(Q) Then what about the variant R70L ?
(A) not met

(Q) Then what about the variant S39N ?
(A) met

(Q) Then what about the variant V49E ?
(A) met

(Q) Then what about the variant F42T ?
(A) met

(Q) Then what about the variant D72M ?
(A) not met

(Q) Then what about the variant L8M ?
(A) not met

(Q) Then what about the variant L65F ?
(A) not met

(Q) Then what about the variant S63F ?
(A) not met

(Q) Then what about the variant K46F ?
(A) not met

(Q) Then what about the variant D6F ?
(A) not met

(Q) Then what about the variant T58V ?
(A) met

(Q) Then what about the variant S41N ?
(A) not met

(Q) Then what about the variant F21C ?
(A) not met

(Q) Then what about the variant T50M ?
(A) met

(Q) Then what about the variant L37Y ?
(A) not met

(Q) Then what about the variant D24L ?
(A) not met

(Q) Then what about the variant L37K ?
(A) not met

(Q) Then what about the variant P34G ?
(A) not met

(Q) Then what about the variant T75F ?
(A) not met

(Q) Then what about the variant I3L ?
(A) met

(Q) Then what about the variant L37Q ?
(A) met

(Q) Then what about the variant R30S ?
(A) not met

(Q) Then what about the variant E18C ?
(A) not met

(Q) Then what about the variant D59C ?
(A) met

(Q) Then what about the variant E18D ?
(A) not met

(Q) Then what about the variant L19C ?
(A) not met

(Q) Then what about the variant E18K ?
(A) not met

(Q) Then what about the variant E78N ?
(A) met

(Q) Then what about the variant S41Y ?
(A) not met

(Q) Then what about the variant V49D ?
(A) not met

(Q) Then what about the variant H7E ?
(A) met
